# target.desc: UniProt Q12809
# method.description: Test for evaluating hERG inhibition (QPatch HT, CHO cell strain stably expressing hERG)
# test.conditions: read-out: Binding inhibition (IC50, μM); concentration at which 50% of the hERG current was inhibited; CHO cells stably expressing hERG, QPatch HT
IC50 strictly less than 1 µM = t. Otherwise f.

[[record]]
compound = "Cc1nc[nH]c1CN1CCC2(CC1)COC1c3cc(Cl)ccc3OC(C)(C)C1C2 (stereo not drawn) [Example 26]"
assigned_class = "t"

[[record]]
compound = "Cc1nccn1CCN1CCC2(CC1)COC1c3cc(Cl)ccc3OC(C)(C)C1C2 (stereo not drawn) [Example 48]"
assigned_class = "t"

[[record]]
compound = "Cc1nc[nH]c1CN1CCC2(CC1)COC1c3cccc(Cl)c3OC(C)(C)C1C2 (stereo not drawn) [Example 27]"
assigned_class = "t"

[[record]]
compound = "Cc1nccn1CC(=O)N1CCC2(CC1)COC1c3cc(N=[N+]=[N-])ccc3OC(C)(C)C1C2 (stereo not drawn) [Example 10]"
assigned_class = "t"

[[record]]
compound = "Cc1nc[nH]c1CN1CCC2(CC1)COC1c3cc(Cl)ccc3OC(C)(C)C1C2 (stereo not drawn) [Example 24]"
assigned_class = "f"

[[record]]
compound = "CC1(C)Oc2cc(Cl)ccc2C2OCC3(CCN(CCn4ccnc4CO)CC3)CC21 (stereo not drawn) [Example 54]"
assigned_class = "f"


# strict comparison: is reported IC50 < 1 µM? input = Cc1nccn1CCN1CCC2(CC1)COC1c3ccc(Cl)cc3OC(C)(C)C1C2 (stereo not drawn) [Example 49]
f

Below 1 µM on IC50? Entry CC1(C)Oc2cc(Cl)ccc2C2OCC3(CCN(CCn4ccnc4)CC3)CC21 (stereo not drawn) [Example 41]
t

Find out if reported IC50 for Cc1nccn1CCN1CCC2(CC1)COC1c3ccc(Cl)cc3OC(C)(C)C1C2 (stereo not drawn) [Example 51] is less than 1 µM
t

In the record for Cn1cncc1CN1CCC2(CC1)COC1c3cc(F)ccc3OC(C)(C)C1C2 (stereo not drawn) [Example 31] , is IC50 less than 1 µM?
f

Is it true that IC50 reported for Cc1nc[nH]c1CN1CCC2(CC1)COC1c3cc(F)ccc3OC(C)(C)C1C2 (stereo not drawn) [Example 21] is less than 1 µM?
f

Input CC1(C)Oc2ccc(Cl)cc2C2OCC3(CCN(CCn4ccnc4)CC3)CC21 (stereo not drawn) [Example 40] ; condition: IC50 strictly below 1 µM. Does it hold?
f

* * *

# target.desc: hERG (Homo sapiens (Human), UniProt Q12809)
# Sequence (Q12809 whole entry): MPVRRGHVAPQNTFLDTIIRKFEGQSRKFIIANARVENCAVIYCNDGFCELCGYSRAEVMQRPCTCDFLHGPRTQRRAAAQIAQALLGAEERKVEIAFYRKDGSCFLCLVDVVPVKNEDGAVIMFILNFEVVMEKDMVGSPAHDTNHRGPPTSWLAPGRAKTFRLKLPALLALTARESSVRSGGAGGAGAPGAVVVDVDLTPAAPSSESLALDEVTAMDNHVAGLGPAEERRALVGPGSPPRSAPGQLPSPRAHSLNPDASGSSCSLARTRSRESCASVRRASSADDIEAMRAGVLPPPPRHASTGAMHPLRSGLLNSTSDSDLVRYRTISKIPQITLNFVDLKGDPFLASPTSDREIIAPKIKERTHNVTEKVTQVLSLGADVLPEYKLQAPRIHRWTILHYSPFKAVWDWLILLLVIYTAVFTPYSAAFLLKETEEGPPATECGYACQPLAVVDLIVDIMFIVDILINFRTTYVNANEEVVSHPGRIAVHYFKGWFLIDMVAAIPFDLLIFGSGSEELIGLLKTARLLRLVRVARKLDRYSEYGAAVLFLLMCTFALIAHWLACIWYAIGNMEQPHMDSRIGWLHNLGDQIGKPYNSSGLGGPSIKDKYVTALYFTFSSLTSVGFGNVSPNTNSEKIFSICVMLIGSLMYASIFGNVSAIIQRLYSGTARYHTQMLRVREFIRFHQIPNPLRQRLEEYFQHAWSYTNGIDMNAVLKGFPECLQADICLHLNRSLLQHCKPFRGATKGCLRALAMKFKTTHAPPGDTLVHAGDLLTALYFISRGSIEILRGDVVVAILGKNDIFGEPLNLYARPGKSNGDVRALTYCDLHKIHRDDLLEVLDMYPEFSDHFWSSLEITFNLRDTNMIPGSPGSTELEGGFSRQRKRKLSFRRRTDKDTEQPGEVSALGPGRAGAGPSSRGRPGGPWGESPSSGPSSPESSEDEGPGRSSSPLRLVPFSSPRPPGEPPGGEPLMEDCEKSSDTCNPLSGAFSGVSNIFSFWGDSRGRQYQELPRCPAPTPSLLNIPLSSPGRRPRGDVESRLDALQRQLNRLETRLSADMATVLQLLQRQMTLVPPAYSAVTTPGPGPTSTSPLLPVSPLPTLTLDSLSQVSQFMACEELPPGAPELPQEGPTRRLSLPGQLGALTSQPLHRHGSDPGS
# method.description: Test for evaluating hERG inhibition (QPatch HT, CHO cell strain stably expressing hERG)
# test.conditions: hERG IC50 (Test 2) divided by HT-29 sphere IC50 (Test 1)
observable: hERG/HT-29
Just the number, please, no unit attached.

Some compounds with recorded hERG/HT-29:
[[record]]
compound = "Cc1nc[nH]c1CN1CCC2(CC1)COC1c3cc(F)ccc3OC(C)(C)C1C2 (centres unmarked) [Example 23]"
measured_result = 23.3

[[record]]
compound = "CC1(C)Oc2ccc(Cl)cc2C2OCC3(CCN(Cc4c[nH]cn4)CC3)CC21 (centres unmarked) [Example 29]"
measured_result = 3.21

[[record]]
compound = "Cc1nc[nH]c1CN1CCC2(CC1)COC1c3ccc(Cl)cc3OCC1C2 (racemic) [Example 64]"
measured_result = 5.71


Let's switch to this compound now.
response.value for Cc1nc[nH]c1CN1CCC2(CC1)COC1c3cc(F)ccc3OC(C)(C)C1C2 (centres unmarked) [Example 21] (field: hERG/HT-29) = 7.14

* * *

Assay read-out hERG/HT-29; system under study: hERG (Homo sapiens (Human)).

Please fill in: hERG/HT-29 reported for Cc1c(CO)ncn1CC(=O)N1CCC2(CC1)COC1c3cc(Cl)ccc3OC(C)(C)C1C2 (stereo not shown) = 0.75

Value of hERG/HT-29 reported for the compound CC1(C)Oc2ccc(Cl)cc2C2OCC3(CCN(CCn4ccnc4C#N)CC3)CC21 (stereo not shown) is 27.1

Value of measured hERG/HT-29 for the entry Cc1nccn1CC(=O)N1CCC2(CC1)COC1c3cc(Cl)ccc3OC(C)(C)C1C2 (single isomer, unassigned) : 2.50

hERG/HT-29 in this record for Cc1nccn1CCN1CCC2(CC1)COC1c3cc(F)ccc3OC(C)(C)C1C2 (stereo not shown) [Example 45] : >40

* * *

# target.desc: hERG (Homo sapiens (Human))
observable: pIC50
# log scale: pIC50 equals minus log10 of the concentration in mol/L

Solved cases (5 shown):
[[record]]
compound = "CC1(C)Oc2ccc(Cl)cc2C2OCC3(CCN(CCn4cnc(CO)c4)CC3)CC21 (stereo not drawn)"
observable = "pIC50"
measured_result = 5.80

[[record]]
compound = "Cc1nccn1CCN1CCC2(CC1)COC1c3ccc(Cl)cc3OC(C)(C)C1C2 (stereo not drawn)"
observable = "pIC50"
measured_result = 5.82

[[record]]
compound = "CC(=O)NCCc1nccn1CCN1CCC2(CC1)COC1c3cc(Cl)ccc3OC(C)(C)C1C2 (stereo not drawn)"
observable = "pIC50"
measured_result = 5.96

[[record]]
compound = "Cc1c(CO)ncn1CC(=O)N1CCC2(CC1)COC1c3cc(Cl)ccc3OC(C)(C)C1C2 (stereo not drawn)"
observable = "pIC50"
measured_result = 6.52

[[record]]
compound = "CC1(C)Oc2ccc(Cl)cc2C2OCC3(CCN(CCn4ccnc4C#N)CC3)CC21 (stereo not drawn)"
observable = "pIC50"
measured_result = 5.72


Now for the compound whose pIC50 we want.
Quick note, pIC50 for Cc1nccn1CC(=O)N1CCC2(CC1)COC1c3ccc(Br)cc3OC(C)(C)C1C2 (stereo not drawn) landed at 6.52

* * *

# target.desc: hERG (Homo sapiens (Human))
# method.description: Test for evaluating hERG inhibition (QPatch HT, CHO cell strain stably expressing hERG)
# test.conditions: hERG IC50 (Test 2) divided by HT-29 sphere IC50 (Test 1)
This listing pairs compounds with measured hERG/HT-29.
# respond with the number and nothing more

Worked examples, 2 compounds total:
[[record]]
compound = "Cc1nc[nH]c1CN1CCC2(CC1)COC1c3cc(F)ccc3OC(C)(C)C1C2 (stereo not shown) [Example 22]"
target_desc = "hERG (Homo sapiens (Human))"
measured_result = 6.67

[[record]]
compound = "Cc1nc[nH]c1CN1CCC2(CC1)COC1c3cc(Cl)ccc3OC(C)(C)C1C2 (stereo not shown) [Example 24]"
target_desc = "hERG (Homo sapiens (Human))"
measured_result = 42.2


Kindly review the next compound as well.
Reported hERG/HT-29 for Cn1cncc1CN1CCC2(CC1)COC1c3cc(F)ccc3OC(C)(C)C1C2 (stereo not shown) was 23.3

* * *

# target.desc: hERG (Homo sapiens (Human), UniProt Q12809)
# method.description: Test for evaluating hERG inhibition (QPatch HT, CHO cell strain stably expressing hERG)
# test.conditions: read-out: Binding inhibition (IC50, μM); concentration at which 50% of the hERG current was inhibited; CHO cells stably expressing hERG, QPatch HT
observable: IC50

Item CC1(C)Oc2ccc(F)cc2C2OCC3(CCN(CCn4ccnc4)CC3)CC21 (stereo not drawn) was tested on hERG (Homo sapiens (Human), UniProt Q12809); the reported IC50 is 1 µM

IC50 on hERG (Homo sapiens (Human), UniProt Q12809) for Cc1c(CO)ncn1CCN1CCC2(CC1)COC1c3cc(Cl)ccc3OC(C)(C)C1C2 (stereo not drawn) is 0.8 µM

Given the compound Cc1nccn1CCN1CCC2(CC1)COC1c3cc(Cl)ccc3OC(C)(C)C1C2 (stereo not drawn) [Example 46] and test system hERG (Homo sapiens (Human), UniProt Q12809), the measured IC50 is 1.2 µM

Record Cc1nccn1CCN1CCC2(CC1)COC1c3cc(F)ccc3OC(C)(C)C1C2 (stereo not drawn) / hERG (Homo sapiens (Human), UniProt Q12809), IC50 recorded as 3.6 µM

For Cc1nc[nH]c1CN1CCC2(CC1)COC1c3cc(Cl)ccc3OC(C)(C)C1C2 (stereo not drawn) [Example 25] on hERG (Homo sapiens (Human), UniProt Q12809), measured IC50 was 0.4 µM

Form field, IC50 with hERG (Homo sapiens (Human), UniProt Q12809), item Cc1nccn1CC(=O)N1CCC2(CC1)COC1c3cccc(Cl)c3OC(C)(C)C1C2 (stereo not drawn) : < 0.3 µM

* * *

A collection of compounds and their measured hERG/HT-29
# target.desc: hERG (Homo sapiens (Human), UniProt Q12809)
# method.description: Test for evaluating hERG inhibition (QPatch HT, CHO cell strain stably expressing hERG)
# test.conditions: hERG IC50 (Test 2) divided by HT-29 sphere IC50 (Test 1)

[[record]]
compound = "CC1(C)Oc2ccc(F)cc2C2OCC3(CCN(CCn4ccnc4)CC3)CC21 (stereo not shown)"
target_desc = "hERG (Homo sapiens (Human), UniProt Q12809)"
observable = "hERG/HT-29"
measured_result = ">100"

[[record]]
compound = "Cc1c(CO)ncn1CCN1CCC2(CC1)COC1c3cc(Cl)ccc3OC(C)(C)C1C2 (stereo not shown)"
target_desc = "hERG (Homo sapiens (Human), UniProt Q12809)"
observable = "hERG/HT-29"
measured_result = ">80"

[[record]]
compound = "Cc1nccn1CCN1CCC2(CC1)COC1c3cc(F)ccc3OC(C)(C)C1C2 (stereo not shown)"
target_desc = "hERG (Homo sapiens (Human), UniProt Q12809)"
observable = "hERG/HT-29"
measured_result = ">360"


Now for the compound whose hERG/HT-29 we want.
In plain terms, CC1(C)Oc2cc(Cl)ccc2C2OCC3(CCN(CCn4ccnc4)CC3)CC21 (racemic) [Example 38] has a documented hERG/HT-29 of >80
